- target entity: T. gondii ME49Luc in IFN-y HeLa, luciferase, 72 h
- experiment notes: T. gondii growth inhibition with IFN-gamma, dose response, cell-based, ME49Luc, HeLa, luciferase, 72 h (AID 1259418)
Inconclusive results are not listed.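 How the source made its calls: active means fitted half-maximal concentration of signal decrease at or below twice the sample's top tested concentration; inconclusive means flat curve between -70 and -30 percent, or poor fit; inactive means flat within 30 percent, signal rise, or potency above limit.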
Response enum: Yes for active, No for inactive

Worked cases, answers included:
[[record]]
molecule = "CCCC(C)c1c(-c2ccccc2)ncn1Cc1cnc(C)cn1 (stereo not given)"
target_entity = "T. gondii ME49Luc in IFN-y HeLa, luciferase, 72 h"
label_value = "Yes"

[[record]]
molecule = "CC(C)(C)CC(C)(C)c1ccc(OCCOCC[N+](C)(C)Cc2ccccc2)cc1"
target_entity = "T. gondii ME49Luc in IFN-y HeLa, luciferase, 72 h"
label_value = "Yes"

[[record]]
molecule = "O=C(c1ccc(-n2c(=S)[nH]c3ccccc3c2=O)cc1)N1CCC(O)(c2cccc(C(F)(F)F)c2)CC1"
target_entity = "T. gondii ME49Luc in IFN-y HeLa, luciferase, 72 h"
label_value = "Yes"

[[record]]
molecule = "Cc1nc(OCC(=O)NCc2ccc3c(c2)OCO3)c2ccccc2n1"
target_entity = "T. gondii ME49Luc in IFN-y HeLa, luciferase, 72 h"
label_value = "Yes"

[[record]]
molecule = "CCN1CCCC1CNc1nc(-c2ccc(OC)cc2)nc2ccccc12 (stereo not given)"
target_entity = "T. gondii ME49Luc in IFN-y HeLa, luciferase, 72 h"
label_value = "Yes"


Tell me the recorded outcome of this test for `COc1ccc(S(=O)(=O)N2CCCCN3[C@H](C2)[C@@H](c2ccc(C#CCC(C)C)cc2)[C@@H]3CO)cc1` . Yes

What classification did CCCCCCC(C)(C)c1ccc(C2CC(O)CCC2CCCO)c(O)c1 (stereo not given) end up with in this test? Yes
